Here the recorded self-splicing fitness (ln) is given for each entry.
Assay: self-splicing fitness, log relative to wild type (ln ratio); higher = more splicing; Tetrahymena group I intron in knt gene, E. coli kanamycin selection, DiMSum; sequences stand for … in CUCUCU…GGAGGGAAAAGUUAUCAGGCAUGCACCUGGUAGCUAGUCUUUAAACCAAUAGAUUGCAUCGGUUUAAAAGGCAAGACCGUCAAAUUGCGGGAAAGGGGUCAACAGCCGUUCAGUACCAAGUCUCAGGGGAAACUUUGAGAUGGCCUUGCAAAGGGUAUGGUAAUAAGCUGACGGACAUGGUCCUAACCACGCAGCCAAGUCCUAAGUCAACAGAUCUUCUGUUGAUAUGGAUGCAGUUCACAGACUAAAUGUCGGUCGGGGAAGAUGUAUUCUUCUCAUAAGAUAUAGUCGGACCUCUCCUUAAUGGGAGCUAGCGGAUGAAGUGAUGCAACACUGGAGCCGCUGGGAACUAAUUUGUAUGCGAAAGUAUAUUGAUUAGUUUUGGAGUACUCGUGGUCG;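 also: selection with 25 µg/mL kanamycin versus none on LB agar overnight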
Conditions: 37 °C
Quantity measured: self-splicing fitness (ln)

• UUCGAGCAAUAUUACGAGGG = -3.12
• AGCAAGCAAUAUUACGUACU = -0.368
• GCCCAGCAAUAUUACGCUUC = -1.33
• AUGCAGCAAUAUUACGAAAA = -2.23
• GCCAAGCAAUAUUACGUUGA = -1.39
• CUUGAGCAAUAUUACGCUCG = -2.65
• AUAGAGCAAUAUUACGCGGG = -2.33
• ACCGAGCAAUAUUACGUAAC = -2.88
• AAGCAGCAAUAUUACGACAC = -0.831
• CAUAAGCAAUAUUACGCCAA = -2.69
• UGGAAGCAAUAUUACGGUGA = -0.4
• UUCUAGCAAUAUUACGCUAU = -1.42
• UACGAGCAAUAUUACGCCAU = -1.84
• UAGUAGCAAUAUUACGAACG = -0.0932
• UAUAAGCAAUAUUACGAUAG = -0.486
• UAUCAGCAAUAUUACGAGUA = -0.301
• CCUCAGCAAUAUUACGUAUG = -0.495
• ACUCAGCAAUAUUACGCACG = -0.784
• AUAGAGCAAUAUUACGAUAA = -0.812
• CAGCAGCAAUAUUACGUUGG = -0.788
• AACGAGCAAUAUUACGCCUC = -1.53
• UACAAGCAAUAUUACGCGAA = -0.769
• CACGAGCAAUAUUACGCGGC = -1.38
• CAUGAGCAAUAUUACGUAGU = -3.3
• GACUAGCAAUAUUACGAUAC = -0.489
• AUCAAGCAAUAUUACGACAG = -1.7
• GUUAAGCAAUAUUACGGCUC = -0.6
• AGACAGCAAUAUUACGAAAG = -2.48
• AGGCAGCAAUAUUACGUGGA = -2.6
• AAUAAGCAAUAUUACGUCUC = -0.799
• UUAAAGCAAUAUUACGCGCG = 0.00297
• UCGAAGCAAUAUUACGCAAA = -3.16
• UGUCAGCAAUAUUACGUCCU = -0.325
• GCGUAGCAAUAUUACGCAAA = -3.44
• ACUCAGCAAUAUUACGGUCG = -1.33
• CUACAGCAAUAUUACGCUAU = -2.6
• UAUGAGCAAUAUUACGCGUG = -1.04
• GGGUAGCAAUAUUACGAGCA = 0.0569
• GGACAGCAAUAUUACGCACU = -0.6
• GGCUAGCAAUAUUACGAGCU = -1.65
• AGAAAGCAAUAUUACGCAAA = -0.836
• CUAGAGCAAUAUUACGAUCG = 0.245
• CCAGAGCAAUAUUACGUGGC = -3.77
